Hey, just so you know, these numbers are from ChEMBL document CHEMBL3632552.

Biological target: Sodium channel protein type 9 subunit alpha (Homo sapiens, UniProt Q15858)
Sequence (Q15858 whole entry): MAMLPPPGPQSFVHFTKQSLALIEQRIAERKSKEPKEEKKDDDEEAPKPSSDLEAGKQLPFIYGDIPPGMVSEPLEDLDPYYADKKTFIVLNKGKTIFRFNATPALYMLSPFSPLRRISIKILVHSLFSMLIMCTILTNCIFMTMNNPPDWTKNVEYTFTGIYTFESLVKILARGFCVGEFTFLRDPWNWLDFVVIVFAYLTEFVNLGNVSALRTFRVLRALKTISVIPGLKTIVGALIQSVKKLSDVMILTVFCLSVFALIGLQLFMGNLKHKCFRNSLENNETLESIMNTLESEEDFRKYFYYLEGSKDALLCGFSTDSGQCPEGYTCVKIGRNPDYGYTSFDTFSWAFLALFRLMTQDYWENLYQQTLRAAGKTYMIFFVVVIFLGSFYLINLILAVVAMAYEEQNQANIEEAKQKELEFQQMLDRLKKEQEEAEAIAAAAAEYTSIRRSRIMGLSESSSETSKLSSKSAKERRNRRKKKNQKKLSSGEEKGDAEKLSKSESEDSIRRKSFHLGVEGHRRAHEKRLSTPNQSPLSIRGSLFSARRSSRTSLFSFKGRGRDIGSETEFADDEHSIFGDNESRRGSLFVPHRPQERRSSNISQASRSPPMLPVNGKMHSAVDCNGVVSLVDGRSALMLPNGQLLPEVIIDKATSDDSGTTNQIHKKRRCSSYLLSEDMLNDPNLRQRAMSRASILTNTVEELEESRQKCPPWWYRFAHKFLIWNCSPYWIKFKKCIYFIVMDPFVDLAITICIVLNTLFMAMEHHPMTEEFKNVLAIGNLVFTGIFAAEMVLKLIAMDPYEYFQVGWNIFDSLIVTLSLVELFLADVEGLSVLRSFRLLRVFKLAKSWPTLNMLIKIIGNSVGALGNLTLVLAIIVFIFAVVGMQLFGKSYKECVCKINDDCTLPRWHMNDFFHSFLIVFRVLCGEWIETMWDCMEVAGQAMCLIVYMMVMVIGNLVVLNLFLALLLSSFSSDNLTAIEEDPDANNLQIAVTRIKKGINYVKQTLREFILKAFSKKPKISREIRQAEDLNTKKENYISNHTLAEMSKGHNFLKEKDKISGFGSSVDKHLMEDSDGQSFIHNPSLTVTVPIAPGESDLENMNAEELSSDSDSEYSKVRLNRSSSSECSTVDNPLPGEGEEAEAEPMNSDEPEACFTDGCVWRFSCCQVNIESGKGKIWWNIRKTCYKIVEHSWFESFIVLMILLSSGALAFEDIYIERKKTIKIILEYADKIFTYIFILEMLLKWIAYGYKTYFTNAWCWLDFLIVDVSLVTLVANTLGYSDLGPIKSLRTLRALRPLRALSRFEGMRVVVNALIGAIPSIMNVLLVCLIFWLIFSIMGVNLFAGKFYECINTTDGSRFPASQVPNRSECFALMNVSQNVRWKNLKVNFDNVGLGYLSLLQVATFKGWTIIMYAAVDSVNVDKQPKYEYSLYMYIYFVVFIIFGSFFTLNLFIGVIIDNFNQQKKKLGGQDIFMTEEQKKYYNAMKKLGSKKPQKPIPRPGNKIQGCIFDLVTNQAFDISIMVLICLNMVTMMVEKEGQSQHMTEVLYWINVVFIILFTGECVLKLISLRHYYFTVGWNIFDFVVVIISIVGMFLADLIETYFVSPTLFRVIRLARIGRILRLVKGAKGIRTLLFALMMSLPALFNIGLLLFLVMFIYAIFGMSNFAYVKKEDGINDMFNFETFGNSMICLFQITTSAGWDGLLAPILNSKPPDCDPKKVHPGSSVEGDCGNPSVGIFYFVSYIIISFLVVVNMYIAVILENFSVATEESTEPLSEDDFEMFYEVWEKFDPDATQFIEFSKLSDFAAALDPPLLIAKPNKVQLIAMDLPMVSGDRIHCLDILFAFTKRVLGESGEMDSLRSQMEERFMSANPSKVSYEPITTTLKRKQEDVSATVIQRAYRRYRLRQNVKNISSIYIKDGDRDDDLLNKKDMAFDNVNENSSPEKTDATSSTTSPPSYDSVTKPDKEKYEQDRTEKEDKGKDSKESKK
Experiment: Inhibition of human NaV1.7 by IonWorks quattro automated electrophysiology assay
pIC50: −log10 of the molar value.
Label Not fulfilled if pIC50 falls below 6; label Fulfilled in every other case.

[
  {
    "molecule": "O=C(c1ccccc1)c1ccccc1OCC(O)CN1CCN(c2cccc3[nH]c(=O)oc23)CC1 (stereo not given)",
    "assignedCategory": "Not fulfilled"
  },
  {
    "molecule": "O=C1c2ccccc2CN1C1CCN(CC(O)COc2ccc(C(F)(F)F)cc2)CC1 (stereo not given)",
    "assignedCategory": "Fulfilled"
  },
  {
    "molecule": "COc1cc(C(F)(F)F)ccc1OCC(O)CN1CCC(N2Cc3ccccc3C2=O)CC1 (stereo not given)",
    "assignedCategory": "Fulfilled"
  }
]

Prompt line: Please indicate if the recorded pIC50 for COc1ccc(OCC(O)CN2CCC(N3Cc4ccccc4C3=O)CC2)cc1 (stereo not given) meets or exceeds 6.
Response line: Not fulfilled

Prompt line: Textbook exercise: given the entry O=C(c1ccccc1)c1ccc(OCC(O)CN2CCC(N3Cc4ccccc4C3=O)CC2)cc1 (stereo not given) , state whether its pIC50 is greater than or equal to 6.
Response line: Fulfilled

Prompt line: Could you verify whether the entry O=C(c1ccccc1)c1ccccc1OCC(O)CN1CCC(N2C(=O)Cc3ccccc32)CC1 (stereo not given) shows pIC50 of no less than 6?
Response line: Not fulfilled
